Values from patent US7858072B2

# TEST NAME: Partition coefficient (1-octanol/buffer)
# Format: physicochemical
# MEASUREMENT CONTEXT: 1-octanol / 0.1 M phosphate buffer, pH 7.4
Property: logp value (lipophilicity); scope: individual molecules
RESULT TYPE: logp value (lipophilicity)

{"MOLECULE": "CNc1ccc(C=Cc2ccc(OCCOCCOCC[18F])cc2)cc1 [[^18F]12b]", "RESULT TYPE": "logp value (lipophilicity)", "REPORTED VALUE": 2.41}
{"MOLECULE": "CNc1ccc(C=Cc2ccc(OCCOCCOCCOCC[18F])cc2)cc1 [[^18F]12c]", "RESULT TYPE": "logp value (lipophilicity)", "REPORTED VALUE": 2.05}
{"MOLECULE": "CNc1ccc(C=Cc2ccc(OCCOCCOCCOCCOCC[18F])cc2)cc1 [[^18F]12d]", "RESULT TYPE": "logp value (lipophilicity)", "REPORTED VALUE": 2.28}
{"MOLECULE": "CNc1ccc(C=Cc2ccc(OCCOCC[18F])cc2)cc1 [[^18F]12a]", "RESULT TYPE": "logp value (lipophilicity)", "REPORTED VALUE": 2.52}
